Value source: ChEMBL document CHEMBL1138817

test system: A549; experiment: Cytotoxic activity against human A549 cell line was measured after 72 hr using MTT assay; type: functional; details: A549, 72 h, read-out: ED50 (the source's name)
This section presents compounds with their documented EC50 values.
measure name: EC50

CC(=O)O[C@H]1CC[C@@]2(C)C(CC[C@]3(C)C2CCC2C4[C@H](C(C)C)CC[C@]4(C(=O)O)CC[C@]23C)C1(C)C (stereo partly specified) | 2.3 µg/mL
C=C(C)[C@@H]1CC[C@]2(C(=O)O)CC[C@]3(C)C(CCC4[C@@]5(C)CC[C@H](OC(=O)CC)C(C)(C)C5CC[C@]43C)C12 (stereo partly specified) | > 10 µg/mL
CC(=O)O[C@H]1C(Br)C[C@@]2(C)C(CC[C@]3(C)C2CCC2C4[C@H](C(C)(Br)CBr)CC[C@]4(C(=O)O)CC[C@]23C)C1(C)C (stereo partly specified) | > 10 µg/mL
C=C(C)[C@@H]1CC[C@]2(C(=O)O)CC[C@]3(C)C(CCC4[C@@]5(C)CC[C@H](OC(=O)C(C)(C)C)C(C)(C)C5CC[C@]43C)C12 (stereo partly specified) | > 10 µg/mL
CC(C)[C@@H]1CC[C@]2(C(=O)O)CC[C@]3(C)C(CCC4[C@@]5(C)CC[C@H](O)C(C)(C)C5CC[C@]43C)C12 (stereo partly specified) [DIHYDROBETULINIC ACID] | 2.2 µg/mL
C=C(C)[C@@H]1CC[C@]2(C(=O)OCC(=O)O)CC[C@]3(C)C(CCC4[C@@]5(C)CC[C@H](O)C(C)(C)C5CC[C@]43C)C12 (stereo partly specified) | > 10 µg/mL

---

system: L132; experiment: Cytotoxic activity against human L132 cell line was measured after 72 hr using MTT assay; assay type: functional; conditions: L132, 72 h, read-out: ED50 (the source's name)
measure name: EC50

C=C(C)[C@@H]1CC[C@]2(C(=O)CC(=O)OC)CC[C@]3(C)C(CCC4[C@@]5(C)CC[C@H](O)C(C)(C)C5CC[C@]43C)C12 (stereo partly drawn) | > 10 µg/mL
COC(=O)CCOC(=O)[C@]12CC[C@@H](C(C)C)C1C1CCC3[C@@]4(C)CC(Br)C(=O)C(C)(C)C4CC[C@@]3(C)[C@]1(C)CC2 (stereo partly drawn) | > 10 µg/mL
CC1(C)C(=O)C(Br)C[C@@]2(C)C1CC[C@]1(C)C2CCC2C3[C@H](C(C)(Br)CBr)CC[C@]3(C(=O)O)CC[C@]21C (stereo partly drawn) | > 10 µg/mL
C=C(C)[C@@H]1CC[C@]2(C(=O)O)CC[C@]3(C)C(CCC4[C@@]5(C)CC[C@H](OC(C)=O)C(C)(C)C5CC[C@]43C)C12 (stereo partly drawn) | > 10 µg/mL
CC(C)[C@@H]1CC[C@]2(C(=O)O)CC[C@]3(C)C(CCC4[C@@]5(C)CC(Br)C(=O)C(C)(C)C5CC[C@]43C)C12 (stereo partly drawn) | > 10 µg/mL
CC(C)[C@@H]1CC[C@]2(C(=O)O)CC[C@]3(C)C(CCC4[C@@]5(C)CC[C@H](O)C(C)(C)C5CC[C@]43C)C12 (stereo partly drawn) [DIHYDROBETULINIC ACID] | 2.4 µg/mL
C=C(C)[C@@H]1CC[C@]2(C(=O)O)CC[C@]3(C)C(CCC4[C@@]5(C)CC[C@H](OC(=O)C(C)(C)C)C(C)(C)C5CC[C@]43C)C12 (stereo partly drawn) | > 10 µg/mL
C=C(C)[C@@H]1CC[C@]2(C(=O)OCC(=O)OC)CC[C@]3(C)C(CCC4[C@@]5(C)CC[C@H](O)C(C)(C)C5CC[C@]43C)C12 (stereo in doubt; 3) | > 10 µg/mL
C=C(C)[C@@H]1CC[C@]2(C(=O)O)CC[C@]3(C)C(CCC4[C@@]5(C)CC/C(=N\Nc6ccccc6)C(C)(C)C5CC[C@]43C)C12 (stereo partly drawn) | 4.3 µg/mL
CC(Br)(CBr)[C@@H]1CC[C@]2(C(=O)O)CC[C@]3(C)C(CCC4[C@@]5(C)CC(Br)[C@H](O)C(C)(C)C5CC[C@]43C)C12 (stereo partly drawn) | > 10 µg/mL
CC(=O)O[C@H]1CC[C@@]2(C)C(CC[C@]3(C)C2CCC2C4[C@H](C(C)C)CC[C@]4(C(=O)O)CC[C@]23C)C1(C)C (stereo partly drawn) | 2.9 µg/mL
CC(=O)O[C@H]1C(Br)C[C@@]2(C)C(CC[C@]3(C)C2CCC2C4[C@H](C(C)(Br)CBr)CC[C@]4(C(=O)O)CC[C@]23C)C1(C)C (stereo partly drawn) | > 10 µg/mL
C=C(C)[C@@H]1CC[C@]2(C(=O)OCC(=O)OC)CC[C@]3(C)C(CCC4[C@@]5(C)CCC(=N)C(C)(C)C5CC[C@]43C)C12 (stereo partly drawn) | > 10 µg/mL

---

tested on: BRISTOL8; assay: Cytotoxic activity against human BRISTOL8 cell line was measured after 72 hr using MTT assay; type: functional; details: Homo sapiens, BRISTOL8, 72 h; read-out: ED50 (the source's name)
measure name: EC50

C=C(C)[C@@H]1CC[C@]2(C(=O)O)CC[C@]3(C)C(CCC4[C@@]5(C)CC[C@H](OC(=O)C(C)(C)C)C(C)(C)C5CC[C@]43C)C12 (stereo partly drawn) | > 10 µg/mL
COC(=O)C(C)C(=O)O[C@H]1CC[C@@]2(C)C(CC[C@]3(C)C2CCC2C4[C@H](C(C)C)CC[C@]4(C(=O)O)CC[C@]23C)C1(C)C (stereo partly drawn) | 2.1 µg/mL
CC(Br)(CBr)[C@@H]1CC[C@]2(C(=O)O)CC[C@]3(C)C(CCC4[C@@]5(C)CC(Br)[C@H](O)C(C)(C)C5CC[C@]43C)C12 (stereo partly drawn) | 7 µg/mL
CC(C)[C@@H]1CC[C@]2(C(=O)O)CC[C@]3(C)C(CCC4[C@@]5(C)CC/C(=N\Nc6ccccc6)C(C)(C)C5CC[C@]43C)C12 (stereo partly drawn) | 3.7 µg/mL
C=C(C)[C@@H]1CC[C@]2(C(=O)O)CC[C@]3(C)C(CCC4[C@@]5(C)CC[C@H](OC(C)=O)C(C)(C)C5CC[C@]43C)C12 (stereo partly drawn) | 4.8 µg/mL
CC(C)[C@@H]1CC[C@]2(C(=O)O)CC[C@]3(C)C(CCC4[C@@]5(C)CC[C@H](O)C(C)(C)C5CC[C@]43C)C12 (stereo partly drawn) [DIHYDROBETULINIC ACID] | 4.4 µg/mL
C=C(C)[C@@H]1CC[C@]2(C(=O)CC(=O)OC)CC[C@]3(C)C(CCC4[C@@]5(C)CC[C@H](O)C(C)(C)C5CC[C@]43C)C12 (stereo partly drawn) | 4.5 µg/mL
COC(=O)COC(=O)[C@]12CC[C@@H](C(C)(Br)CBr)C1C1CCC3[C@@]4(C)CC(Br)C(=O)C(C)(C)C4CC[C@@]3(C)[C@]1(C)CC2 (stereo partly drawn) | 1.9 µg/mL
CC(C)[C@@H]1CC[C@]2(C(=O)O)CC[C@]3(C)C(CCC4[C@@]5(C)CC(Br)C(=O)C(C)(C)C5CC[C@]43C)C12 (stereo partly drawn) | 2.9 µg/mL
CC(=O)O[C@H]1C(Br)C[C@@]2(C)C(CC[C@]3(C)C2CCC2C4[C@H](C(C)(Br)CBr)CC[C@]4(C(=O)O)CC[C@]23C)C1(C)C (stereo partly drawn) | 1.4 µg/mL
C=C(C)[C@@H]1CC[C@]2(C(=O)O)CC[C@]3(C)C(CCC4[C@@]5(C)CC/C(=N\OS(=O)(=O)c6ccc(C)cc6)C(C)(C)C5CC[C@]43C)C12 (stereo partly drawn) | 3.3 µg/mL
C=C(C)[C@@H]1CC[C@]2(C(=O)O)CC[C@]3(C)[C@H](CC[C@@H]4[C@@]5(C)CC[C@H](O)C(C)(C)[C@@H]5CC[C@]43C)[C@@H]12 [BETULINIC ACID] | 0.84 µg/mL
COC(=O)COC(=O)[C@]12CC[C@@H](C(C)C)C1C1CCC3[C@@]4(C)CC(Br)C(=O)C(C)(C)C4CC[C@@]3(C)[C@]1(C)CC2 (stereo partly drawn) | 3.4 µg/mL

---

system: CCRF-CEM; assay: Cytotoxic activity against human CEM.CM3 cell line was measured after 72 hr using MTT assay; assay type: functional; settings: Homo sapiens, CCRF-CEM, 72 h; read-out: ED50 (the source's name)
measure name: EC50 (µg/mL)

C=C(C)[C@@H]1CC[C@]2(C(=O)OCC(=O)OC)CC[C@]3(C)C(CCC4[C@@]5(C)CC[C@H](O)C(C)(C)C5CC[C@]43C)C12 (stereo in doubt; 3) | 3.2
CC(Br)(CBr)[C@@H]1CC[C@]2(C(=O)O)CC[C@]3(C)C(CCC4[C@@]5(C)CC(Br)[C@H](O)C(C)(C)C5CC[C@]43C)C12 (stereo partly drawn) | 6.8
C=C(C)[C@@H]1CC[C@]2(C(=O)O)CC[C@]3(C)C(CCC4[C@@]5(C)CC[C@H](OC(=O)C(C)C(=O)OC)C(C)(C)C5CC[C@]43C)C12 (stereo partly drawn) | 1.6
COC(=O)CCOC(=O)[C@]12CC[C@@H](C(C)C)C1C1CCC3[C@@]4(C)CC(Br)C(=O)C(C)(C)C4CC[C@@]3(C)[C@]1(C)CC2 (stereo partly drawn) | 1.9
C=C(C)[C@@H]1CC[C@]2(C(=O)O)CC[C@]3(C)[C@H](CC[C@@H]4[C@@]5(C)CC[C@H](O)C(C)(C)[C@@H]5CC[C@]43C)[C@@H]12 | 0.98
CC(=O)O[C@H]1CC[C@@]2(C)C(CC[C@]3(C)C2CCC2C4[C@H](C(C)C)CC[C@]4(C(=O)O)CC[C@]23C)C1(C)C (stereo partly drawn) | 1
CC(C)[C@@H]1CC[C@]2(C(=O)O)CC[C@]3(C)C(CCC4[C@@]5(C)CC(Br)C(=O)C(C)(C)C5CC[C@]43C)C12 (stereo partly drawn) | 0.3
C=C(C)[C@@H]1CC[C@]2(C(=O)O)CC[C@]3(C)C(CCC4[C@@]5(C)CC/C(=N\Nc6ccccc6)C(C)(C)C5CC[C@]43C)C12 (stereo partly drawn) | 3.1
COC(=O)COC(=O)[C@]12CC[C@@H](C(C)C)C1C1CCC3[C@@]4(C)CC(Br)C(=O)C(C)(C)C4CC[C@@]3(C)[C@]1(C)CC2 (stereo partly drawn) | 2.1
COC(=O)COC(=O)[C@]12CC[C@@H](C(C)(Br)CBr)C1C1CCC3[C@@]4(C)CC(Br)C(=O)C(C)(C)C4CC[C@@]3(C)[C@]1(C)CC2 (stereo partly drawn) | 1.2
C=C(C)[C@@H]1CC[C@]2(C(=O)OCC(=O)OC)CC[C@]3(C)C(CCC4[C@@]5(C)CCC(=N)C(C)(C)C5CC[C@]43C)C12 (stereo partly drawn) | 1.4
CC(C)[C@@H]1CC[C@]2(C(=O)O)CC[C@]3(C)C(CCC4[C@@]5(C)CC/C(=N\O)C(C)(C)C5CC[C@]43C)C12 (stereo partly drawn) | 2.6
C=C(C)[C@@H]1CC[C@]2(C(=O)O)CC[C@]3(C)C(CCC4[C@@]5(C)CC/C(=N\OS(=O)(=O)c6ccc(C)cc6)C(C)(C)C5CC[C@]43C)C12 (stereo partly drawn) | 1.5
